# Tested on: SN12C renal
# assay_summary: NCI-60 one-dose screen, 48 h
# measurement_parameters: 10 µM unless noted
This is part of a sample that, as a whole, favours compounds with a hit. Of some 83,000 tested, about 20% had one in any assay. The source made the active and inactive calls. Rule for the calls: active = growth percent below 10; inactive = the rest.
Possible outcomes: active, inactive

compound: CC(C)=CC(=O)N[C@@H]1CC2CCC3C(CC[C@@]4(C)C3CC[C@@H]4C(C)N(C)C)[C@@]2(C)C[C@@H]1O (some centres undefined)
discrete_label: inactive

compound: Cc1cc(N2CCN(C)CC2)nc(NCc2cc(Nc3ccnc4cc(Cl)ccc34)ccc2F)n1
discrete_label: active

compound: C=C1C(=O)O[C@H]2[C@H]1CC/C(CNC(=O)c1cc3ccccc3[nH]1)=C\CC[C@@]1(C)O[C@@H]21
discrete_label: active

compound: CCn1cc(C2=C(c3cn(C)c4ncccc34)C(=O)NC2=O)c2cccnc21
discrete_label: inactive

compound: Nc1c(C(=O)Nc2ccncc2)sc2nc3c(cc12)CCCCC3
discrete_label: inactive

compound: N/C(=N\c1nc2ccccc2s1)NC(=NC1CCCCC1)NC1CCCCC1
discrete_label: inactive

compound: Cc1ccc(-c2cc(C(=O)N3N=C(c4ccc(N)cc4)CC3c3ccc(Cl)cc3)c3ccccc3n2)cc1 (centres undefined)
discrete_label: inactive

compound: CCNC(=O)Oc1ccc(/C(=C(/C)Cc2ccc(OC)cc2)c2ccc(OCCN3CCCC3)cc2)cc1
discrete_label: inactive

compound: CC1=CCC[C@@H]2C1(C)CC[C@H](C)[C@@]2(C)CC1=CC(=O)C(SC(C)(C)C)=CC1=O (some centres undefined)
discrete_label: inactive

compound: COc1ccc(C2=NN(C(=O)c3cc(OC)c(OC)c(OC)c3)C(c3ccc(N(C)C)cc3)C2)cc1 (centres undefined)
discrete_label: inactive

compound: c1ccc(CNc2ccc3nc(CCC4CCCCC4)[nH]c3c2)cc1
discrete_label: inactive

compound: Cc1nc2ccccc2c(/C=C/c2ccc(C(F)(F)F)cc2)c1C(=O)/C=C/c1ccccc1
discrete_label: active

compound: CCCCn1sc(=O)n(Cc2ccc(CNC(=O)OCc3ccc4c(Br)cc(Br)c(O)c4n3)cc2)c1=O
discrete_label: inactive

compound: CC1(C)CCC(S(=O)(=O)c2ccc3c(c2)/C(=N\O)c2cc(S(=O)(=O)N4CCN(c5ccc(F)cc5O)CC4)ccc2-3)CC1
discrete_label: inactive

compound: COc1cc2c3c(c1O)-c1ccccc1[C@@H]1OC(=O)N(CC2)[C@H]31
discrete_label: inactive

compound: C=C(c1ccc(C(=O)O)cn1)c1cc2c(cc1C)C(C)(C)CCC2(C)C
discrete_label: inactive

compound: Cc1[nH]c(C(=O)Nc2ccc(C(N)=O)cc2NC(C)C)c(Cl)c1Cl
discrete_label: inactive

compound: Cc1ccc(N=Nc2c(N)nn(-c3ccccc3)c2N)cc1
discrete_label: inactive

compound: COc1cc2c(cc1O)[C@@]1(C)[C@H](c3ccccc3Br)OC(=O)N1CC2
discrete_label: inactive

====

# System: A498 renal
# assay_summary: NCI-60 one-dose screen, 48 h (100 = growth as untreated, 0 = no growth, -100 = all killed)
# measurement_parameters: 10 µM unless noted
About 83,000 compounds went through this panel and 20% of them were active in at least one assay; those are over-represented in the sample as a whole.
Reported growth is given for each of the following compounds.

compound: Cc1nc2sc(C(=O)Nc3ccc(Cl)cc3)c(N)c2cc1C(O)c1ccccc1 (centres undefined)
measure_unit: %
growth: 13.5
//
compound: NNC(=S)N/N=C/c1ccccn1
measure_unit: %
growth: 70.4
//
compound: CCOC(=O)C1=C(C)N=C2SC=C(c3ccccc3)N2[C@H]1c1cn[nH]c1-c1ccc(Cl)cc1
measure_unit: %
growth: 68.8
//
compound: COC(=O)c1c2c(n3ccc(C)cc13)C(=O)c1ccccc1C2=O
measure_unit: %
growth: 78.3
//
compound: C[N+](C)(C/C=C/c1ccccc1)Cc1ccccc1
measure_unit: %
growth: 94.6
//
compound: CCCCCCC(CCCC)COC(=O)c1ccc(Cl)cc1 (centres undefined)
measure_unit: %
growth: 93.9
//
compound: CCCNc1nc2ccccc2c2c(=O)c3cccc(Cl)c3sc12
measure_unit: %
growth: 124
//
compound: CCN(CC)c1ccc(/C=N\NC(=O)c2cccc(Nc3ccnc(C(F)(F)F)c3)c2)c(O)c1
measure_unit: %
growth: 53
//
compound: O=C(OC[C@@H]1CO1)c1cccc2c(=O)c3ccccc3[nH]c12
measure_unit: %
growth: -44.4
//
compound: O=C(CCl)Nc1ccc2c(Nc3cc(O)ccc3Cl)ncnc2c1
measure_unit: %
growth: 56.2
//
compound: Cc1ccc2[nH]c(=O)c3c(c2c1)OC(N)=C(C#N)C31C(=O)c2cccc3cccc1c23 (centres undefined)
measure_unit: %
growth: 107
//
compound: CCCC(O)Cn1ncc(C(=O)OCC)c1NC(=O)NCc1cccc(F)c1 (centres undefined)
measure_unit: %
growth: 108
//
compound: CCOC(=O)c1c(NC(=O)CSc2n[nH]c3nc4ccccc4n23)sc(CC)c1C
measure_unit: %
growth: 106
//
compound: C#CC#CC#CC#CC#CC#CC#CC#CC[C@H]1OC[C@@H](COC(=O)O[C@@H](C(=O)O[C@H]2C[C@@]3(O)[C@@H](OC(=O)c4ccccc4)[C@@H]4[C@]5(OC(C)=O)CO[C@@H]5C[C@H](O)[C@@]4(C)C(=O)[C@H](OC(C)=O)C(=C2C)C3(C)C)[C@@H](NC(=O)c2ccccc2)c2ccccc2)O1
measure_unit: %
growth: 45.4
//
compound: CC[C@H](Nc1nc(N)nc(C)c1C#N)c1nc2cccc(NCCCCCC(=O)NO)c2c(=O)n1-c1ccccc1
measure_unit: %
growth: -29.5
//
compound: COc1cccc(/C=C/C(=O)c2cc3c(N)c(C(=O)Nc4cccc(Cl)c4C)sc3nc2C)c1
measure_unit: %
growth: -13.2
//
compound: CC(=O)c1c(Nc2ccc(F)c(F)c2F)[nH]c2c(F)cc(F)cc2c1=O
measure_unit: %
growth: -33.4
//
compound: COc1cc(-c2nc3occn3c2-c2ccnc(NCCCNS(=O)(=O)c3ccccc3)n2)ccc1F
measure_unit: %
growth: 57.1
//
compound: CC1(C)O[C@H]2OC3CCC(=O)CC3(O)[C@H]2O1 (some centres undefined)
measure_unit: %
growth: 95.1

====

Known growth of a selection of compounds
# Test system: SK-MEL-28 melanoma
# assay_summary: NCI-60 one-dose screen, 48 h (100 = growth as untreated, 0 = no growth, -100 = all killed)
# measurement_parameters: 10 µM unless noted
Compounds without any hit were thinned out: in the full panel of roughly 83,000, 20% have a hit.

input_smiles: COc1cc2oc(-c3cccc(NC(=O)c4ccc5c(c4)OCO5)c3)cc(=O)c2c(OC)c1OC
growth [%]: 55.1

input_smiles: O=c1ccc2nc(C(F)(F)F)nn(-c3ccccc3)c-2c1
growth [%]: 35.7

input_smiles: Oc1c(Cl)cc(Cl)c2ccc(Cn3cc(-c4cccc(C(F)(F)F)c4)nn3)nc12
growth [%]: 75.9

input_smiles: COc1ccc(NC(=O)c2ccc(C(=O)Nc3ccc(OC)cc3OC)cc2)c(OC)c1
growth [%]: 101

input_smiles: O=C1/C(=C/c2ccccc2)CN(C(=O)c2cccnc2)C/C1=C\c1ccccc1
growth [%]: -9.39

====

# Test system: SR leukemia
# assay_summary: NCI-60 one-dose screen, 48 h
# measurement_parameters: 10 µM unless noted
Compounds without any hit were thinned out: in the full panel of roughly 83,000, 20% have a hit. The source made the active and inactive calls. How the source made its calls: active means growth percent below 10; inactive means the rest.
Possible outcomes: true (1) = active, false (0) = inactive

compound: OC(c1ccccc1)(c1ccccc1)c1ccccc1-c1ccccc1
discrete_label: false (0)

compound: COc1ccc(NC(=O)c2sc3nc(C)c(C(O)c4ccccc4)cc3c2N)cc1 (stereo not given)
discrete_label: true (1)

compound: COc1ccc(/C(C)=C(\c2ccc(OCCN3CCCCCC3)cc2)c2ccc(OC(=O)c3ccccc3)cc2)cc1
discrete_label: true (1)

compound: CCn1cc(CNc2ccc(C(=O)Nc3cc4cc(OC)c(OC)cc4c(C)n3)cc2)c(C)n1
discrete_label: false (0)

compound: Cc1[nH]c(C(=O)Nc2cccc(OC3CCNCC3)c2)c(Cl)c1Cl
discrete_label: false (0)

compound: COc1cc(/C=N/Nc2ccccc2F)cc(OC)c1OC
discrete_label: false (0)

compound: CN1CCN(C(=O)c2cc(-c3ccc4ncnc(N5CCc6cc(F)c(Cl)cc65)c4c3)cnc2N)CC1
discrete_label: false (0)

compound: CCN=C1C=CC(=C(c2ccc(N(C)C)cc2)c2ccc(N(C)C)cc2)c2ccccc21
discrete_label: true (1)

compound: COc1ccc(C2CC(c3ccc(Nc4nc(Nc5ccc(F)cc5)nc(Nc5ccc(F)cc5)n4)cc3)=NN2C(C)=O)cc1 (stereo not given)
discrete_label: false (0)

compound: CC(C)(C)c1cc(C=Nc2cccc(C(F)(F)F)c2)c(O)c(C(C)(C)C)c1
discrete_label: false (0)

compound: CCc1ccc(CCC(=O)Nc2ncc(Cc3ccc(Cl)cc3)s2)o1
discrete_label: false (0)

compound: COc1ccc(NC(=O)c2ccc(C(=O)Nc3ccc(OC)cc3OC)cc2)c(OC)c1
discrete_label: false (0)

compound: CCNc1nc(-c2ccc(F)cc2)c(C#N)c(=O)n1C
discrete_label: false (0)

compound: CC1COCC(C)N1C1=C(Cl)C(=O)c2ccccc2C1=O (stereo not given)
discrete_label: false (0)

compound: S=c1ssnc1-c1cccs1
discrete_label: false (0)

compound: COc1ccc2c(c1)c(-c1nonc1-c1c[nH]c3ccc(Br)cc13)cn2C
discrete_label: false (0)

compound: O=C(Cn1cc(CN2C(=O)c3ccccc3S2(=O)=O)nn1)Nc1cccc(Cl)c1
discrete_label: false (0)

compound: CC1=C(C(=O)n2c3ccccc3c3ccccc32)C(c2cccc([N+](=O)[O-])c2)C(C(=O)n2c3ccccc3c3ccccc32)=C(C)N1
discrete_label: false (0)

compound: N#C/C(=C\c1ccc(Cl)cc1Cl)C(=O)Nc1ncc(Cc2ccc(Cl)c(Cl)c2)s1
discrete_label: false (0)

compound: COc1ccc(Nc2ncc(C(N)=O)c(NCCCNC(=O)C3CCC3)n2)cc1
discrete_label: false (0)
